- experimental_details: Mean residence time in ICR mouse at 0.1 mg/kg, iv administered as cassette dose
- Type: ADME, organism-based
- run_conditions: in vivo
readout_type: log10(MRT) (log10 of the value in h)
Note the log scale: values are log10 of MRT expressed in h.

[[record]]
molecule_smiles = "COc1cc(-c2ccc(F)cc2)c(C2CC2)cc1CN1CC2(CC(N3CCC(C)(C(=O)O)CC3)=NO2)C1"
readout_type = "log10(MRT)"
test_result = 0.44

[[record]]
molecule_smiles = "CCOc1cc(-c2ccc(F)cc2)c(C2CC2)cc1CN1CC2(CC(N3CCC(C)(C(=O)O)CC3)=NO2)C1"
readout_type = "log10(MRT)"
test_result = 0.35

[[record]]
molecule_smiles = "CCOc1cc(CN2CC3(CC(N4CCC(C(=O)O)CC4)=NO3)C2)cc(OCC)c1-c1ccc(F)cc1"
readout_type = "log10(MRT)"
test_result = 0.24

[[record]]
molecule_smiles = "CCOc1cc(CN2CC3(CC(N4CCC(F)(C(=O)O)CC4)=NO3)C2)cc(OCC)c1-c1ccc(F)cc1"
readout_type = "log10(MRT)"
test_result = -0.54


Q) Entry `CCOc1cc(CN2CC3(CC(N4CCC(C)(C(=O)O)CC4)=NO3)C2)cc(C)c1-c1ccc(F)cc1` needs its log10(MRT) filled in; supply it.
A) -0.06

Q) Entry `CCOc1cc(CN2CC3(CC(N4CCC(C)(C(=O)O)CC4)=NO3)C2)c(C2CC2)cc1-c1ccc(F)cc1` needs its log10(MRT) filled in; supply it.
A) 0.38

Q) Entry `COc1c(CN2CC3(CC(N4CCC(C)(C(=O)O)CC4)=NO3)C2)cc(C2CC2)c(-c2ccc(F)cc2)c1Cl` needs its log10(MRT) filled in; supply it.
A) 0.53

Q) Entry `CC(C)Oc1cc(-c2ccc(F)cc2)c(C2CC2)cc1CN1CC2(CC(N3CCC(C)(C(=O)O)CC3)=NO2)C1` needs its log10(MRT) filled in; supply it.
A) 0.41
